Assay: Quantitative High-Throughput drug screen in 47 multiple myeloma cell lines against the NCATS MIPE library collection: EJM_DSMZ cell viability assay (AID 1918926; also: nearly all actives have a fitted effect of over 30% in size)
Conditions: EJM myeloma cell viability, CellTiter-Glo ATP, 48 h; series mostly up to 45.8 µM
Records with an inconclusive call do not appear. Activity calls are given as the source filed them. Calls follow the shape of the dose curve; as a rule, active = well fitted cell-killing curve with a large enough effect; inconclusive = small, poorly fitted or top-dose-only effect, or effect the other way; inactive = no such curve, though single readings can be large or run the other way. Starred links: 1 amine or outer side, 2 acyl side, 3 side chain; linkers in the order of their positions; H or OH if unused. Positions of bridges follow the written chain, without caps; N, C: chain ends. Non-standard residues stand in square brackets, D forms with d. Residues, ends and D or L forms follow the SMILES beside them. Chains are numbered I, II in the order given. *: point of attachment. Actinocin(9to1) = Cc1c2oc3c(C)ccc(C(=O)[*:1])c3nc-2c(C(=O)[*:2])c(N)c1=O; NMeV = CN[CH](C(=O)O)C(C)C; Nva = CCC[C@H](N)C(=O)O; Cbz = O=C(OCc1ccccc1)*; Sar = CNCC(=O)O
Select the correct class. Options are 1 = active, 0 = inactive and nothing else.

>  <molecule>
CCC[C@@H](C=O)NC(=O)[C@H](CC(C)C)NC(=O)[C@H](CC(C)C)NC(=O)OCc1ccccc1 (Cbz-Leu-Leu-[Nva]-aldehyde)

>  <group>
1

$$$$
>  <molecule>
Oc1ccc(-c2ccc(-c3cc(Nc4cccc(CNC5CC5)c4)n[nH]3)cc2)c(O)c1

>  <group>
1

$$$$
>  <molecule>
Nc1nc(=O)n([C@H]2CSC(CO)O2)cc1F (stereo not given in full)

>  <group>
0

$$$$
>  <molecule>
COC[C@H](NC(=O)c1cnc(C)s1)C(=O)N[C@@H](COC)C(=O)N[C@@H](Cc1ccccc1)C(=O)[C@@]1(C)CO1

>  <group>
1

$$$$
>  <molecule>
Nc1nc(N)c2nc(-c3cccc(O)c3)c(-c3cccc(O)c3)nc2n1

>  <group>
1

$$$$
>  <molecule>
COc1ccc(Nc2nccc(NCCO)n2)cc1

>  <group>
0

$$$$
>  <molecule>
Cc1c2oc3c(C)ccc(C(=O)NC4C(=O)NC(C(C)C)C(=O)N5CCCC5C(=O)N(C)CC(=O)N(C)C(C(C)C)C(=O)OC4C)c3nc-2c(C(=O)NC2C(=O)NC(C(C)C)C(=O)N3CCCC3C(=O)N(C)CC(=O)N(C)C(C(C)C)C(=O)OC2C)c(N)c1=O (stereo not given) (I: TVP[Sar][NMeV] / II: TVP[Sar][NMeV]; ester I:1-I:C, II:1-II:C; linker I:N-II:N via Actinocin(9to1); configuration not given here)

>  <group>
0

$$$$
>  <molecule>
C=CC1=C(C(=O)O)N2C(=O)[C@@H](NC(=O)C(=NO)c3csc(N)n3)[C@H]2SC1

>  <group>
0

$$$$

Q: GET /call?item= CCCNC(=O)[C@H]1O[C@H]1C(=O)N[C@H](C(=O)N1CCC[C@@H]1C(=O)OC)C(C)CC (stereo not given in full) returns the recorded outcome of this test.
A: 1

Q: Assay outcome for CC(C)[C@H](CO)Nc1nc(Nc2cccc(Cl)c2)c2ncn(C(C)C)c2n1 : what was it?
A: 1

Q: Check the results log: what was the call for CC(C)(C)[N+]([O-])=Cc1ccc(S(=O)(=O)O)cc1S(=O)(=O)O ?
A: 0

Q: What classification did COC(=O)[C@@H]1CC2=CC(=O)CC[C@]2(C)[C@@]23O[C@@H]2C[C@@]2(C)[C@H](CC[C@@]24CCC(=O)O4)[C@@H]13 end up with in this test?
A: 0

Q: Outcome? CCN(CC)CCCCNc1ncc2c(n1)N(C)C(=O)N(c1c(Cl)c(OC)cc(OC)c1Cl)C2
A: 1

Q: Hello, I am checking results. What call was entered for CCN(C(=O)c1c(O)c2c(Cl)cccc2n(C)c1=O)c1ccccc1 ?
A: 0

Q: Which outcome did this test record for the molecule CCOC(=O)[C@@H](N)Cc1ccc(-c2cc(O[C@H](c3ccc(Cl)cc3-n3ccc(C)n3)C(F)(F)F)nc(N)n2)cc1 ?
A: 1

Q: Write down the call the test reported for this molecule. Item: CC(C)c1cnn2c(NCc3ccccc3)cc(NCCCCCCN)nc12
A: 1
